experimental protocol: Lipophilicity, log D of the compound at pH 7.4 by chromatographic method
condition context: buffer
value type: chromatographic logD

- sample smiles: "NCc1cncc(-c2ccc([C@H]3CC[C@H](CC(=O)O)CC3)cc2)n1"
  value type: "chromatographic logD"
  censoring qualifier: "<"
  numeric value: 0
- sample smiles: "N#C/N=C(\\N)c1cncc(-c2ccc([C@H]3CC[C@H](CC(=O)O)CC3)cc2)n1"
  value type: "chromatographic logD"
  censoring qualifier: "="
  numeric value: 1.2
- sample smiles: "CC(C)(NC(=O)C[C@H]1CC[C@H](c2ccc(-c3cncc(C(N)=O)n3)cc2)CC1)C(=O)O"
  value type: "chromatographic logD"
  censoring qualifier: "<"
  numeric value: 0.1
- sample smiles: "Cc1nc(C(C)C)c(C(N)=O)nc1-c1ccc([C@H]2CC[C@H](CC(=O)O)CC2)cc1"
  value type: "chromatographic logD"
  censoring qualifier: "="
  numeric value: 2.6
- sample smiles: "Cc1ncc(C(N)=O)nc1-c1ccc([C@H]2CC[C@H](C(=O)O)CC2)cc1"
  value type: "chromatographic logD"
  censoring qualifier: "="
  numeric value: 0.22
- sample smiles: "Cc1ncc(C(=O)O)nc1-c1ccc([C@H]2CC[C@H](CC(=O)O)CC2)cc1"
  value type: "chromatographic logD"
  censoring qualifier: "<"
  numeric value: 0
- sample smiles: "Cc1nc(-c2ccccc2)c(C(N)=O)nc1-c1ccc([C@H]2CC[C@H](CC(=O)O)CC2)cc1"
  value type: "chromatographic logD"
  censoring qualifier: "="
  numeric value: 2
- sample smiles: "N=C(N)c1cncc(-c2ccc([C@H]3CC[C@H](CC(=O)O)CC3)cc2)n1"
  value type: "chromatographic logD"
  censoring qualifier: "<"
  numeric value: 0
- sample smiles: "NC(=O)c1cncc(-c2ccc([C@H]3CC[C@H](CC(=O)O)CC3)cc2)n1"
  value type: "chromatographic logD"
  censoring qualifier: "<"
  numeric value: 0.1
- sample smiles: "NC(=O)c1cncc(-c2ccc([C@H]3CC[C@H](CC(=O)O)CC3)cc2)c1"
  value type: "chromatographic logD"
  censoring qualifier: "="
  numeric value: 0
